Biological target: AChE (Homo sapiens, UniProt P22303)
Construct: purchased Sigma-Aldrich
Sequence (P22303 32-614): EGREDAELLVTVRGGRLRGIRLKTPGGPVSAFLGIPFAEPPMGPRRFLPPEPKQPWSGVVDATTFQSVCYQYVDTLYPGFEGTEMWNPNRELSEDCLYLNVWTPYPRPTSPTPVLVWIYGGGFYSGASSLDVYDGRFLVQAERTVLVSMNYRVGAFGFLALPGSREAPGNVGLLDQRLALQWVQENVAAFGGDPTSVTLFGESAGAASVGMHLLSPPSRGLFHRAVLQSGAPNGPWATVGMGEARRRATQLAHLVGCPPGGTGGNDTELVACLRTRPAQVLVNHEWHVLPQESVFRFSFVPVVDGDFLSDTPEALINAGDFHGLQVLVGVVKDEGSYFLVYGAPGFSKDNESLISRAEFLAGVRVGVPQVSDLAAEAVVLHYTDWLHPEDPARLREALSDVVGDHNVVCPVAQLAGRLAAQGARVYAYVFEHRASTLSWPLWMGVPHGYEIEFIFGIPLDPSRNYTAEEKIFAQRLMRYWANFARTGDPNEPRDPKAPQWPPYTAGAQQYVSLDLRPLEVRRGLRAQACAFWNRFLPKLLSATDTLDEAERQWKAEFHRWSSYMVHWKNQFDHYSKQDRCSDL
Experiment: biochemical
Conditions: mean ± S.D. of triplicate experiments; substrate ACh iodide
pIC50: −log10 of the molar value.
A collection of compounds and their measured pIC50

[
  {
    "compound": "CC(=O)OC[C@H]1O[C@@H](Oc2cccc3c2C(=O)O[C@@H](c2ccc(OC(C)=O)cc2)C3)[C@H](OC(C)=O)[C@@H](OC(C)=O)[C@@H]1OC(C)=O [HGP, hydrangenol 8-O-glucoside pentaacetate]",
    "pIC50": 4.64
  },
  {
    "compound": "O=C1OC(c2ccc(O)cc2)Cc2cc(O)cc(O)c21 (centres unmarked)",
    "pIC50": 4.38
  }
]
